tested on: HCT-116; test: Cytotoxicity against human HCT116 assessed as reduction in cell viability after 48 hrs by MTT assay; type: functional, cell-based; details: HCT-116, 48 h
pIC50: −log10 of the molar value.
Tick y if pIC50 is 5 or greater. Tick n if pIC50 is less than 5.

structure | group
CCN(CC)c1ccc2cc(C(=O)c3ccc(N4CCN(C(=O)CN5CCN(CC(=O)c6ccc7ccccc7c6)CC5)CC4)cc3)oc2c1 | n
CCN(CC)c1ccc2cc(C(=O)c3ccc(N4CCN(C(=O)CN5CCN(Cc6ccc(F)c(F)c6)CC5)CC4)cc3)oc2c1 | n
CCN(CC)c1ccc2cc(C(=O)c3ccc(N4CCN(C(=O)CN5CCN(S(=O)(=O)c6ccc(C#N)cc6)CC5)CC4)cc3)oc2c1 | n
CCN(CC)c1ccc2cc(C(=O)c3ccc(N4CCN(C(=O)CN5CCN(CC(=O)c6ccc(OC)cc6)CC5)CC4)cc3)oc2c1 | n
CCN(CC)c1ccc2cc(C(=O)c3ccc(N4CCN(C(=O)CN5CCN(C(=O)/C=C/c6ccccc6)CC5)CC4)cc3)oc2c1 | y
